Source of measurements: BindingDB's records for doi:10.1021/jm00060a002

Listed here: compounds with reported pIC50 for Gag-Pol polyprotein [588-1027]/[588-1147] (Human immunodeficiency virus 1, UniProt P04585).
On this scale, pIC50 is minus log10 of a concentration expressed in M (mol/L).

1. CCc1cc(CCc2nc3ccccc3o2)c(N)nc1C = 4.00

Please examine the following record next.
// lookup pIC50 | system=Gag-Pol polyprotein [588-1027]/[588-1147] (Human immunodeficiency virus 1, UniProt P04585) | key= CCc1cc(CCc2nc3c(o2)CCCC3)c(=O)[nH]c1C
7.24
